The measured values listed here are drawn from PubChem BioAssay (NCI).

# System: NCI-H522 lung
# experiment-notes: NCI-60 one-dose screen, 48 h (100 = growth as untreated, 0 = no growth, -100 = all killed)
# condition-parameters: 10 µM unless noted
This is part of a sample that, as a whole, favours compounds with a hit. Of some 83,000 tested, about 20% had one in any assay.
Returns rule met if the recorded growth is greater than or equal to 90%, and rule not met otherwise.

Check the entry NCCNc1ccc([N+](=O)[O-])cc1 : does growth equal or exceed 90%? rule met

# iterate: COc1ccc(C2=NN(C=O)C(c3ccc(Oc4nc5c(c(=O)n(C)c(=O)n5C)n4C)c(OC)c3)C2)cc1 (stereo not drawn) rule met

COC(=O)CCc1c(/C=C2\N=C(c3ccc[nH]3)C=C2OC)[nH]c(C)c1C(=O)OCc1ccccc1 ? rule not met

Would you mind doing O=C1/C(=C/c2ccccc2)COc2ccc(O)cc21 as well? rule not met

Another compound to look at: CNC(=O)c1cc(Oc2ccc3nc(NC(=O)NC(C)C)sc3c2)ccn1 rule not met

Pending compound:
Does Cc1cc(=O)oc2cc(Oc3nc(-c4ccccc4)cn4c(-c5ccccc5)cnc34)ccc12 have a reported growth of at least 90%? rule not met
